Biological target: UniProtKB Q9NYA1
Sequence (Q9NYA1 whole entry): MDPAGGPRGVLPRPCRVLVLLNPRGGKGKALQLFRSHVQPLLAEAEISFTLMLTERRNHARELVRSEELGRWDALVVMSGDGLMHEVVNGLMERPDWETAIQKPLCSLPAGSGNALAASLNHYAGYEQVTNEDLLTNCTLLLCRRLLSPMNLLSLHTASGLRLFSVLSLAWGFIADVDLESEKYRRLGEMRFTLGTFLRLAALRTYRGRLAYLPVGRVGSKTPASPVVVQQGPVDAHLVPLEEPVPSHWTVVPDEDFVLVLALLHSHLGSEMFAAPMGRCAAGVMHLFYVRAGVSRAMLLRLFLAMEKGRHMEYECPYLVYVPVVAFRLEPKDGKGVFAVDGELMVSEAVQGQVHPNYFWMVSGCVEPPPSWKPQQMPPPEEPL
Assay: Inhibition of recombinant human SPHK1 using sphingosine as substrate in presence ATP
assayMetric: Ki (µM)
# value in µM; strip the unit string

Name the reported Ki value associated with the compound CCCCCCCCc1ccc2cc(-c3noc(C4CCCN4C(=N)N)n3)ccc2c1 (single isomer, unassigned)
12

---

Target: Sphingosine kinase 2 (Homo sapiens)
Assay: Inhibition of recombinant human SPHK2 assessed as residual activity at 0.3 uM using sphingosine as substrate after 30 mins in presence of gamma-[32P]-ATP by liquid scintillation counting relative to control
# cutoff 40% applies to Activity; >= gives met, < gives not met

Examples with answers:
* N=C(N)N1CCC[C@H]1Cc1nc(-c2ccc(Nc3nc(-c4cccc(-c5ccccc5)c4)cs3)cc2)no1 | met
* N=C(N)N1CCC[C@H]1Cc1nc(-c2ccc(Nc3nc(-c4ccc(F)c(F)c4)cs3)cc2)no1 | met
* N=C(N)N1CCC[C@H]1Cc1nc(-c2ccc(Nc3nc(-c4ccc(Cl)c(Cl)c4)cs3)cc2)no1 | met
* N=C(N)N1CCC[C@H]1Cc1nc(-c2ccc(Nc3nc(-c4ccc(-c5ccccc5)cc4)cs3)cc2)no1 | not met
* N=C(N)N1CCC[C@H]1Cc1nc(-c2ccc(Nc3nc(-c4cccnc4)cs3)cc2)no1 | met

Please indicate if the recorded Activity for COc1ccc(-c2csc(Nc3ccc(-c4noc(C[C@@H]5CCCN5C(=N)N)n4)cc3)n2)cc1 meets or exceeds 40%.
met

What would you report for N=C(N)N1CCC[C@H]1Cc1nc(-c2ccc(Nc3nc(-c4ccc(Cl)cc4)cs3)cc2)no1 ?
met

What would you report for N=C(N)N1CCC[C@H]1Cc1nc(-c2ccc(Nc3nc(-c4ccccc4F)cs3)cc2)no1 ?
met

What would you report for N=C(N)N1CCC[C@H]1Cc1nc(-c2ccc(Nc3nc(-c4ccc(F)c(C(F)(F)F)c4)cs3)cc2)no1 ?
not met

What would you report for N=C(N)N1CCC[C@H]1Cc1nc(-c2ccc(Nc3nc(-c4cccc(C(F)(F)F)c4)cs3)cc2)no1 ?
not met

What would you report for N=C(N)N1CCC[C@H]1Cc1nc(-c2ccc(Nc3nc(-c4ccc(-c5ccc(C(F)(F)F)cc5)cc4)cs3)cc2)no1 ?
met
